Recorded values, source patent US20250163002A1.

# Lookup of reported IC50 keyed by entry
Tested on: L929
test: In vitro cell proliferation inhibition test (MTT), L929
Type: cell-based
applied-conditions: 24 h or 48 h after addition, unit inferred
Write it as a number; the unit µM goes unstated.

Cn1c[n+](C)c2c1C(=O)c1ccccc1C2=NOCc1ccc(Cl)cc1 | 4.9
Cn1c[n+](C)c2c1C(=O)c1ccccc1C2=NOCc1ccccc1.[I-] | 45.3
Cn1c[n+](C)c2c1C(=O)c1ccccc1C2=NOCc1ccccc1 [Compound 140] | 34.5
CCCn1c[n+](C)c2c1C(=O)c1ccccc1/C2=N\O | 32.7
COc1ccc(Cn2c[n+](C)c3c2C(=O)c2ccccc2/C3=N\O)cc1 | 17.6
COc1ccc(CON=C2c3ccccc3C(=O)c3c2[n+](C)cn3C)cc1 | 16
CC(C)CON=C1c2ccccc2C(=O)c2c1[n+](C)cn2C | 26.4
Cn1c[n+](C)c2c1C(=O)c1cccc([N+](=O)[O-])c1/C2=N\O | 12.9
C[n+]1cn(Cc2ccccc2)c2c1/C(=N/O)c1ccccc1C2=O | 37.4
Cn1c[n+](C)c2c1C(=O)c1ccccc1C2=NOCC1CC1 | 24.7

(Q) Hello, I am looking for reported IC50 with L929 for `Cn1c[n+](C)c2c1C(=O)c1ccccc1/C2=N\O` . Could you help?
(A) 4.7

(Q) Hello, I am looking for reported IC50 with L929 for Cn1c[n+](C)c2c1C(=O)c1ccccc1C2=NOCc1ccccc1 [Compound 138] . Could you help?
(A) 25.9

* * *

Tested on: leukemia cell CCRF-CEM
test: In vitro proliferation inhibition, CCRF-CEM
Type: cell-based
applied-conditions: unit inferred
# Lookup of reported IC50 keyed by entry
For clarity, give the value followed by its unit.

Cn1c[n+](C)c2c1C(=O)c1ccccc1C2=NOCc1ccccc1.[I-] | 90 nM

(Q) Which value of IC50 has been reported for `CON=C1c2ccccc2C(=O)c2c1[n+](C)cn2C.[I-]` in the records?
(A) 120 nM

(Q) Which value of IC50 has been reported for `CCON=C1c2ccccc2C(=O)c2c1[n+](C)cn2C.[I-]` in the records?
(A) 220 nM

* * *

Tested on: A549
test: In vitro inhibition test for cancer cell proliferation (MTT), A549
Format: cell-based
applied-conditions: 24 h or 48 h after addition, unit inferred
Measured IC50 determines class: interval 1 (below 90 nM), interval 2 (90 nM to below 600 nM), interval 3 (600 nM or more)

Some solved entries appear below for comparison.
CC(C)CON=C1c2ccccc2C(=O)c2c1[n+](C)cn2C | interval 1
COc1ccc(CON=C2c3ccccc3C(=O)c3c2[n+](C)cn3C)cc1 | interval 1
C[n+]1cn(-c2ccc(F)c(Cl)c2)c2c1/C(=N/O)c1ccccc1C2=O | interval 3

(Q) Textbook exercise: identify the category of the compound given here, `Cn1c[n+](C)c2c1C(=O)c1ccccc1C2=NOCc1ccc(C(F)(F)F)cc1` , according to its measured value.
(A) interval 2

(Q) Textbook exercise: identify the category of the compound given here, Cn1c[n+](C)c2c1C(=O)c1ccccc1C2=NOCc1ccccc1 [Compound 138] , according to its measured value.
(A) interval 1

(Q) Textbook exercise: identify the category of the compound given here, `CC(C)n1c[n+](C)c2c1C(=O)c1ccccc1/C2=N\O` , according to its measured value.
(A) interval 3

(Q) Textbook exercise: identify the category of the compound given here, `Cn1c[n+](C)c2c1C(=O)c1cc3ccccc3cc1C2=NOCc1ccccc1` , according to its measured value.
(A) interval 2

(Q) Textbook exercise: identify the category of the compound given here, `C[n+]1cn(-c2ccccc2F)c2c1/C(=N/O)c1ccccc1C2=O` , according to its measured value.
(A) interval 3

(Q) Textbook exercise: identify the category of the compound given here, Cn1c[n+](C)c2c1C(=O)c1ccccc1C2=NOCc1ccccc1 [Compound 140] , according to its measured value.
(A) interval 1

* * *

# Lookup of reported pIC50 keyed by entry
System: gastric cancer cell KATO-III
test: In vitro proliferation inhibition, KATO-III
Type: cell-based
applied-conditions: unit inferred
FYI, pIC50 means -log10 of a concentration in mol per litre.

As a guide, the following entries are already answered.
CON=C1c2ccccc2C(=O)c2c1[n+](C)cn2C.[I-] | 8.00
Cn1c[n+](C)c2c1C(=O)c1ccccc1C2=NOCc1ccccc1.[I-] | 8.05

// next item, pIC50 requested
(Q) Which value of pIC50 has been reported for `CCON=C1c2ccccc2C(=O)c2c1[n+](C)cn2C.[I-]` in the records?
(A) 7.70

* * *

Test system: L929
test: In vitro cell proliferation inhibition test (MTT), L929
Format: cell-based
applied-conditions: 24 h or 48 h after addition, unit inferred
# Lookup of reported IC50 keyed by entry
Write it as a number; the unit µM goes unstated.

As a guide, the following entries are already answered.
CC(C)n1c[n+](C)c2c1C(=O)c1ccccc1/C2=N\O | 26.3
CCCCn1c2c([n+](C)c1-c1cc(OC)c(OC)c(OC)c1)C(=NOCc1ccccc1)c1ccccc1C2=O | 44.1

(Q) Which value of IC50 has been reported for `Cn1c[n+](C)c2c1C(=O)c1ccccc1/C2=N\OCC1OCCO1` in the records?
(A) 34.8

(Q) Which value of IC50 has been reported for `C[n+]1cn(Cc2cccc(F)c2)c2c1/C(=N/O)c1ccccc1C2=O` in the records?
(A) 73.4

* * *

# Lookup of reported pIC50 keyed by entry
Tested on: melanoma cell A375
test: In vitro proliferation inhibition, A375
Format: cell-based
applied-conditions: unit inferred
FYI, pIC50 means -log10 of a concentration in mol per litre.

As a guide, the following entries are already answered.
CON=C1c2ccccc2C(=O)c2c1[n+](C)cn2C.[I-] [Compound 123] | 5.33
CCON=C1c2ccccc2C(=O)c2c1[n+](C)cn2C.[I-] [Compound 124] | 5.25

(Q) Which value of pIC50 has been reported for Cn1c[n+](C)c2c1C(=O)c1ccccc1C2=NOCc1ccccc1.[I-] [Compound 125] in the records?
(A) 5.66

* * *

Test system: A549
test: In vitro inhibition test for cancer cell proliferation (MTT), A549
Assay type: cell-based
applied-conditions: 24 h or 48 h after addition, unit inferred
pIC50: −log10 of the molar value.
Measured pIC50 determines class: bottom end: < 6; midrange: ≥ 6 and < 7; top end: ≥ 7

Some solved entries appear below for comparison.
CCOC(=O)Cn1c[n+](C)c2c1C(=O)c1ccccc1/C2=N\O | midrange
C[n+]1cn(CC2OCCO2)c2c1/C(=N/O)c1ccccc1C2=O | midrange
C[n+]1cn(Cc2cccc(F)c2)c2c1/C(=N/O)c1ccccc1C2=O | midrange
CC(C)=CCn1c[n+](C)c2c1C(=O)c1ccccc1/C2=N\O | midrange
Cn1c[n+](C)c2c1C(=O)c1ccccc1C2=NOCc1ccc(F)cc1 | top end

Now examine the next entry.
(Q) Textbook exercise: identify the category of the compound given here, `C[n+]1cn(-c2ccc(F)c(Br)c2)c2c1/C(=N/O)c1ccccc1C2=O` , according to its measured value.
(A) bottom end

* * *

Test system: A549
test: In vitro inhibition test for cancer cell proliferation (MTT), A549
Type: cell-based
applied-conditions: 24 h or 48 h after addition, unit inferred
IC50 under 90 nM gets Fulfilled, anything at or over 90 nM gets Not fulfilled.

C[n+]1cn(Cc2ccc(F)cc2)c2c1/C(=N/O)c1ccccc1C2=O [Compound 108] | Not fulfilled
Cn1c[n+](C)c2c1C(=O)c1cccc([N+](=O)[O-])c1/C2=N\O [Compound 118] | Not fulfilled
C=CCON=C1c2cc3ccccc3cc2C(=O)c2c1[n+](C)cn2C [Compound 150] | Not fulfilled
Cn1c[n+](C)c2c1C(=O)c1ccccc1C2=NOCc1ccc(Cl)cc1 [Compound 134] | Fulfilled
Cn1c[n+](C)c2c1C(=O)c1ccccc1C2=NOCC1CC1 [Compound 131] | Fulfilled
C[n+]1cn(Cc2ccccc2)c2c1/C(=N/O)c1ccccc1C2=O [Compound 102] | Not fulfilled

(Q) I wonder whether CCn1c[n+](C)c2c1C(=O)c1ccccc1/C2=N\O [Compound 92] has IC50 below 90 nM. Can you tell?
(A) Not fulfilled

(Q) I wonder whether Cn1c[n+](C)c2c1C(=O)c1cc3ccccc3cc1C2=NOCc1ccc([N+](=O)[O-])cc1 [Compound 151] has IC50 below 90 nM. Can you tell?
(A) Not fulfilled

* * *

Tested on: A549
test: In vitro inhibition test for cancer cell proliferation (MTT), A549
Assay type: cell-based
applied-conditions: 24 h or 48 h after addition, unit inferred
metric-name: IC50
For clarity, give the value followed by its unit.

As a guide, the following entries are already answered.
CCCCn1c[n+](C)c2c1C(=O)c1ccccc1C2=NOCc1ccccc1 | 90 nM
C[n+]1cn(-c2ccc(F)cc2)c2c1/C(=N/O)c1ccccc1C2=O | 11600 nM
C[n+]1cn(C(C)(C)C)c2c1/C(=N/O)c1ccccc1C2=O | 590 nM

(Q) Which value of IC50 has been reported for `CCCCn1c[n+](C)c2c1C(=O)c1ccccc1C2=NOCC` in the records?
(A) 690 nM

(Q) Which value of IC50 has been reported for `CCCCn1c[n+](CC)c2c1C(=O)c1ccccc1C2=NOC` in the records?
(A) 1800 nM
